system: IGROV1 ovarian; experiment: NCI tumour cell line growth inhibition, 48 h
If the reported TGI equals or exceeds 30 µM, assign class 1. If not, assign class 0.

COMPOUND: c1ccc(C2N=C(c3ccccn3)C(c3ccccn3)=NC2c2ccccc2)cc1 (stereo unspecified)
ANSWER LABEL: class 1

COMPOUND: Cc1cc2ccccc2oc(=O)/c1=N\Nc1ccccc1
ANSWER LABEL: class 1

COMPOUND: C#CCn1c(I)cc2c(c1=O)COC(=O)[C@]2(O)CC
ANSWER LABEL: class 1

COMPOUND: CC(C)=CCNc1ncnc2c1ncn2CCC(=O)O
ANSWER LABEL: class 1

COMPOUND: CCSc1c2ccccc2nc2c(OC)ccc(OC)c12
ANSWER LABEL: class 1

COMPOUND: O=C(CC1(O)CCCCC1)OC1CCCC1
ANSWER LABEL: class 1

COMPOUND: CC(=O)c1nc(-c2ccc(C[C@@H](CNC(=O)CN(C)C)NC(=O)c3ccc(OC(C)C)c(Cl)c3)cc2)cn1C
ANSWER LABEL: class 0

COMPOUND: Nc1ccccc1SC(/C=C/NNC1=NC(c2ccccc2)C(c2ccccc2)=NN1)c1ccccc1 (stereo unspecified)
ANSWER LABEL: class 1

COMPOUND: CC(Cl)(CCC(Cl)C(C)(C)Cl)C(=O)CBr (stereo unspecified)
ANSWER LABEL: class 0

COMPOUND: O=c1cc(-c2ccccc2)oc2cc(OCCCCCCCCCCOc3ccc4c(=O)cc(-c5ccccc5)oc4c3)ccc12
ANSWER LABEL: class 1
